# subject-of-test: Acetylcholinesterase (Homo sapiens)
# protocol-description: Acetylcholinesterase (AChE) small molecule antagonists: enzyme-based qHTS assay (AID 1347397); further: on the % scale 0 is the no-effect control and ±100 the full control effect; nearly all actives have a fitted effect of over 55% in size
# assay-conditions: series mostly up to 115 µM
The source made the active and inactive calls. The call rests on the fitted dose curve.
test-readout: activity change, negative = inhibition

Field: example entries. Status: answers known.
# compound, experimental-result
data = [
    ("Brc1c2ccccc2c(Br)c2ccccc12", "0.273% [at 10.5 µM] (inactive)"),
    ("COC(=O)c1ccc2cc(C(=O)OC)ccc2c1", "-0.273% [at 23.6 µM] (inactive)"),
    ("CC1=CC(=C(c2ccc(N)cc2)c2ccc(N)cc2)C=CC1=N", "0.534% [at 10.5 µM] (inactive)"),
    ("CN1CCN(c2c(F)cc3c(=O)c(C(=O)O)cn4c3c2OCN4C)CC1", "0.0377% [at 23.6 µM] (inactive)"),
    ("CCCCCCCCCCCCCCCCCCOCCO", "1.34% [at 23.6 µM] (inactive)"),
]

Req: Item CC(NN)c1ccccc1 (centres undefined) with Acetylcholinesterase (Homo sapiens) - activity change, negative = inhibition?
Resp: 0.277% [at 23.6 µM] (inactive)

Req: Can you check O=C(O)CN(CCN(CC(=O)O)CC(=O)O)CCN(CC(=O)O)CC(=O)O next?
Resp: 0.748% [at 23.6 µM] (inactive)

Req: Can you check CN(C)CCCN(C)C next?
Resp: 0.096% [at 10.5 µM] (inactive)

Req: Can you check COc1cc2ncnc(Nc3cccc(Cl)c3)c2cc1OC next?
Resp: -0.138% [at 23.6 µM] (inactive)

Req: Can you check C[C@](N)(Cc1ccc(O)cc1)C(=O)O next?
Resp: 0.139% [at 10.5 µM] (inactive)

Req: Can you check C[N+]1(CC2COC(c3ccccc3)(c3ccccc3)O2)CCCCC1 (centres undefined) next?
Resp: 0.437% [at 23.6 µM] (inactive)

Req: Can you check C=C/C=C/C=C/CCCCC next?
Resp: 0.676% [at 23.6 µM] (inactive)

Req: Can you check NC(N)=NCCC[C@H](N)C(=O)O next?
Resp: -0.554% [at 10.5 µM] (inactive)

Req: Can you check O=S(O)O next?
Resp: -0.777% [at 23.6 µM] (inactive)

---

# subject-of-test: Nuclear receptor subfamily 1 group I member 2 (Homo sapiens) (UniProt O75469)
# protocol-description: Human pregnane X receptor (PXR) activation by small molecules, qHTS assay (AID 1346985); further: nearly all actives have a fitted effect of over 40% in size; on activation: on the % scale 0 is the no-effect control and ±100 the full control effect
# assay-conditions: DPX-2 HepG2 CYP3A4-luciferase, 24 h; series mostly up to 38.3 µM
Inconclusive results are not listed. The source made the active and inactive calls. Calls come from the whole dose curve; as a rule, active = well fitted activation curve with a large enough effect in the repeat runs; inconclusive = weak or mixed curves; inactive = flat fitted curve, though single readings scatter.
Classes to choose from: active, inactive

# compound, assigned-class
measured = [
    ("CC(=O)OO", "inactive"),
    ("COC(=O)[C@@H]1[C@H]2CC[C@@H](C[C@H]1OC(=O)c1ccccc1)N2C", "inactive"),
    ("Cc1ccccc1-n1c(C)nc2ccccc2c1=O", "inactive"),
    ("CCC1(CC)C(=O)NC(=O)N(C)C1=O", "inactive"),
]

Req: Tell me the recorded outcome of this test for C[C@]12CC[C@H](O)C[C@H]1CC[C@@H]1[C@@H]2CC[C@]2(C)[C@@H](c3ccc(=O)oc3)C[C@H]3O[C@]132 .
Resp: active

Req: Can you check CN1[C@H]2CC[C@@H]1[C@@H](C(=O)O)[C@@H](OC(=O)c1ccccc1)C2 next?
Resp: inactive

Req: Can you check O=C1CN(O)C(c2ccccc2)=c2cc(Cl)ccc2=N1 next?
Resp: inactive

Req: Can you check CCCCCCC(=O)O[C@H]1CC[C@H]2[C@@H]3CC[C@H]4CC(=O)C=C(C)[C@]4(C)[C@H]3CC[C@]12C next?
Resp: inactive

Req: Can you check CCC1(C)CC(=O)NC(=O)C1 next?
Resp: inactive

Req: Can you check CN=C1CN(O)C(c2ccccc2)=c2cc(Cl)ccc2=N1 next?
Resp: inactive

Req: Can you check CNC(C)C(O)c1ccc(O)cc1 (stereo unspecified) next?
Resp: inactive

Req: Can you check O=C(CCl)c1ccc(Oc2ccc(C(=O)CCl)cc2)cc1 next?
Resp: inactive

Req: Can you check O=C1CCCCC1CN1CCCCC1 (stereo unspecified) next?
Resp: inactive

Req: Can you check C[C@@H]([C@H](O)c1ccccc1)N(C)C next?
Resp: inactive

Req: Can you check CC(=O)[C@H]1CC[C@H]2[C@@H]3CC[C@@H]4C[C@H](O)CC[C@]4(C)[C@H]3CC[C@]12C next?
Resp: inactive

Req: Can you check CC(=O)O[C@H]1C[C@H](O[C@H]2[C@@H](O)C[C@H](O[C@H]3[C@@H](O)C[C@H](OC4CC[C@@]5(C)[C@H](CC[C@@H]6[C@@H]5CC[C@]5(C)[C@@H](C7=CC(=O)OC7)CC[C@]65O)C4)O[C@@H]3C)O[C@@H]2C)O[C@H](C)[C@H]1O[C@@H]1O[C@H](CO)[C@@H](O)[C@H](O)[C@H]1O (stereo partly specified) next?
Resp: inactive

Req: Can you check CC1(C)[C@H](C=C(Cl)Cl)[C@H]1C(=O)OCc1c(F)c(F)cc(F)c1F next?
Resp: inactive

Req: Can you check CCCCCc1cc(O)c2c(c1)OC(C)(C)[C@@H]1CCC(C)=C[C@@H]21 next?
Resp: active

Req: Can you check NC1=NC(=O)N2CC12 (stereo unspecified) next?
Resp: inactive

The values you see were collected from PubChem BioAssay (Tox21).
